Target: T1, in-line fusion protein of human IL-36R extracellular domain and IL1RAcP extracellular domain expressed with … (human; mouse, UniProt Q9HB29 20-337; Q9NPH3 21-359, limits assumed)
T1 construct: not shown: mouse IgG2a Fc
T1 sequence (looked up): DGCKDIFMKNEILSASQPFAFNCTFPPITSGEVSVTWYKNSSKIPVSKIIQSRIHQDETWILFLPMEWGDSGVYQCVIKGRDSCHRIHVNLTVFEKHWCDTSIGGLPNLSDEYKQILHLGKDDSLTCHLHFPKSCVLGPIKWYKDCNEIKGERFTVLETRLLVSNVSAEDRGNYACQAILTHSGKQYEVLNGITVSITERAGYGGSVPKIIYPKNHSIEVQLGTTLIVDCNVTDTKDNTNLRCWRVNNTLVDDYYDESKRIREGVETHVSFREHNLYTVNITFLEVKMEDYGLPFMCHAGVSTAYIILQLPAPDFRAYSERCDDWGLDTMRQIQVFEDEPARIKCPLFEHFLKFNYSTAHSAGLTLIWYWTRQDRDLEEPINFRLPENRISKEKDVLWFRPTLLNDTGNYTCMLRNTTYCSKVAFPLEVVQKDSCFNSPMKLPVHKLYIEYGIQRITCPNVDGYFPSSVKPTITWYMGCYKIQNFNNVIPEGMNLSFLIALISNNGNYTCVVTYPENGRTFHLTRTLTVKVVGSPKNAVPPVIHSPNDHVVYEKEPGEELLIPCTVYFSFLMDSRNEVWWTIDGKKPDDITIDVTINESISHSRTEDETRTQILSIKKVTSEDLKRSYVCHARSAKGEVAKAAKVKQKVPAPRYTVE
Assay: SPR Biacore 4000, mAb captured on anti-hFc, 25C
# koff values compiled below
Number in s⁻¹, nothing else.

H4H14706P2 (antibody, human IgG4 S228P, kappa, V domains shown, Fully human anti-IL-36R antibody) VH: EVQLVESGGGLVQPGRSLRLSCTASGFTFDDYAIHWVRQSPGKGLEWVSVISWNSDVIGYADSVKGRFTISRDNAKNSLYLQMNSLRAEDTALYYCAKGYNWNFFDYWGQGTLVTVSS VL: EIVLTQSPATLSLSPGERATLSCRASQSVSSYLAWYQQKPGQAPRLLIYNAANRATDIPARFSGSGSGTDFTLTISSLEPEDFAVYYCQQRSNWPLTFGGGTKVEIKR    0.00011
H4H14757P (antibody, human IgG4 S228P, kappa, V domains shown, Fully human anti-IL-36R antibody) VH: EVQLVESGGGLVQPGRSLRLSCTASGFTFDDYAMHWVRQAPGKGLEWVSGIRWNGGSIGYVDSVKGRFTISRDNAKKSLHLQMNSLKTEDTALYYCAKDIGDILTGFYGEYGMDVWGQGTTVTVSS VL: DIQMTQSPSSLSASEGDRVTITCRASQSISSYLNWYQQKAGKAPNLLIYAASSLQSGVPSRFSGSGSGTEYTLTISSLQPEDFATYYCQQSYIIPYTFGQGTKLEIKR    0.000103

Now take the following binder into account.
// query Please report the measured koff for H4H14731P (antibody, human IgG4 S228P, kappa, V domains shown, Fully human anti-IL-36R antibody) VH: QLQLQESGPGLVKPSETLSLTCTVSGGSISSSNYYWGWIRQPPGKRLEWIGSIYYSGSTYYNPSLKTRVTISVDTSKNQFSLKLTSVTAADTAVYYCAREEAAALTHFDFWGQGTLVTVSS VL: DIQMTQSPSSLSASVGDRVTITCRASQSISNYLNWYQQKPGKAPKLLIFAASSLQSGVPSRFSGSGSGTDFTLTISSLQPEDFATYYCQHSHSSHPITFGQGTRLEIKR
// result 0.000201

Origin of measurements: patent US20200017592A1
